System: Burkholderia pseudomallei
Assay: Antibacterial activity against Burkholderia pseudomallei K96243 under muller hinton medium by CLSI protocol based microdilution method
Type: functional
recorded_metric: MIC (µg/mL)
Field: numeric (µg/mL). Do not append units.

# compound, measured_target, readout_unit, assay_result
measured = [
    ("O=C(O)c1cn(C2CC2)c2cc(N3CCN(C(=O)c4ccc(O)c(O)c4)CC3)c(F)cc2c1=O", "Burkholderia pseudomallei", "µg/mL", 64),
    ("O=C(O)c1cn(C2CC2)c2cc(N3CCN(C(=O)c4cccc(O)c4O)CC3)c(F)cc2c1=O", "Burkholderia pseudomallei", "µg/mL", 8),
    ("CC(OC(=O)c1cc(=O)c(O)c[nH]1)OC(=O)N1CCN(c2cc3c(cc2F)c(=O)c(C(=O)O)cn3C2CC2)CC1 (stereo unspecified)", "Burkholderia pseudomallei", "µg/mL", 1),
    ("CC(OC(=O)c1cccc(O)c1O)OC(=O)N1CCN(c2cc3c(cc2F)c(=O)c(C(=O)O)cn3C2CC2)CC1 (stereo unspecified)", "Burkholderia pseudomallei", "µg/mL", 8),
]

API: the following record is the query input.
Reported MIC ( O=C(O)c1cn(C2CC2)c2cc(N3CCN(C(=O)c4ccc(O)c(O)c4Cl)CC3)c(F)cc2c1=O ) = 64
